- Tested on: 186277-243-T-J2-PDC complex spheroid growth, % test/control;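 also: spheroids exposed to agents for 7 days; 100% = DMSO vehicle control wells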
- TEST METHOD NOTES: Anticancer human tumor 186277-243-T-J2-PDC patient-derived colon adenocarcinoma cell line growth inhibition [Asc]
- TEST SETTINGS: second compound 1 µM; first compound 1 µM; stronger effect = lower value
Consider the following compounds; for each one, report its viability, T/C.
One number for each entry, in %.

>  <COMPOUND>
COc1c(OCCCN2CCOCC2)ccc2c3n(c(=NC(=O)c4cnc(N)nc4)nc12)CCN3 + CNC(C)C(=O)NC1CN(S(=O)(=O)c2cccc(S(=O)(=O)N3CCC4CCC(C(=O)NC(c5ccccc5)c5ccccc5)N4C(=O)C(NC(=O)C(C)NC)C3)c2)CCC2CCC(C(=O)NC(c3ccccc3)c3ccccc3)N2C1=O

>  <MEAS VALUE>
17.7

$$$$

Return reported viability, T/C values for all items listed beneath this line.
1. CCN1CCN(Cc2ccc(Nc3ncc(F)c(-c4cc(F)c5nc(C)n(C(C)C)c5c4)n3)nc2)CC1 + CNC(C)C(=O)NC1CN(S(=O)(=O)c2cccc(S(=O)(=O)N3CCC4CCC(C(=O)NC(c5ccccc5)c5ccccc5)N4C(=O)C(NC(=O)C(C)NC)C3)c2)CCC2CCC(C(=O)NC(c3ccccc3)c3ccccc3)N2C1=O
2. CNC(C)C(=O)NC1CN(S(=O)(=O)c2cccc(S(=O)(=O)N3CCC4CCC(C(=O)NC(c5ccccc5)c5ccccc5)N4C(=O)C(NC(=O)C(C)NC)C3)c2)CCC2CCC(C(=O)NC(c3ccccc3)c3ccccc3)N2C1=O (stereo not drawn) + Cc1c(S(C)(=O)=O)c(-c2cc(F)cc(N3CCN(c4ccc(NS(=O)(=O)c5ccc(NC(CCN6CCC(C(=O)OCCCP(=O)(O)O)CC6)CSc6ccccc6)c(S(=O)(=O)C(F)(F)F)c5)cc4)CC3)c2)c(-c2ccc(Cl)cc2)n1C(C)C

[120, 99.5]
